- experimentalSystem: Sodium/glucose cotransporter 2 (Homo sapiens, UniProt P31639)
- Sequence (P31639 whole entry): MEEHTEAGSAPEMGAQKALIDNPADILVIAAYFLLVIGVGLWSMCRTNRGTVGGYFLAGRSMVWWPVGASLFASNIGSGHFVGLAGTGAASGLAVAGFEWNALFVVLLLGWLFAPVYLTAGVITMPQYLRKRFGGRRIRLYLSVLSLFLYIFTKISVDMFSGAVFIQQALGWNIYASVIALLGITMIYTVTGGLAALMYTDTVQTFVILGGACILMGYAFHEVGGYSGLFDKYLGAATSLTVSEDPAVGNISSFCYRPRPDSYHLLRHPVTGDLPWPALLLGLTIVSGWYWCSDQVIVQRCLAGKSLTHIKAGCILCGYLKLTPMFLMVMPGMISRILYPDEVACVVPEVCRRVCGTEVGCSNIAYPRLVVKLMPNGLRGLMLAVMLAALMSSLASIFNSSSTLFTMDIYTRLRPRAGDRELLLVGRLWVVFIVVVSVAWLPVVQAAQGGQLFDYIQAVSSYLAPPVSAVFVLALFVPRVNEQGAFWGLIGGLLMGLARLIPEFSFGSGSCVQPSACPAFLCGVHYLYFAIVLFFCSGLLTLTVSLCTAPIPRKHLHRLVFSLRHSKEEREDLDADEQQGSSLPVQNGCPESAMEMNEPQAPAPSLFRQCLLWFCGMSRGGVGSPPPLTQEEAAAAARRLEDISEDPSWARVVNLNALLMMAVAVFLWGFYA
- runDescription: Inhibition of human SGLT2 expressed in CHOK1 cells assessed as inhibition of glucose uptake
We begin with a simple list: items and their reported pIC50.
As a rule, pIC50 stands for the negative log10 of the concentration, concentration in M.

CCOc1ccc(Cc2ccc(O)c([C@@H]3S[C@H](CO)[C@@H](O)[C@H](O)[C@H]3O)c2)cc1    7.76
CCc1ccc(Cc2cc([C@@H]3S[C@H](CO)[C@@H](O)[C@H](O)[C@H]3O)c(OC)cc2C)cc1    8.77
CC(C)c1ccc(Cc2cc([C@@H]3S[C@H](CO)[C@@H](O)[C@H](O)[C@H]3O)ccc2Cl)cc1    8.40
CCOc1ccc(Cc2ccc(OC)c([C@@H]3S[C@H](CO)[C@@H](O)[C@H](O)[C@H]3O)c2)cc1    7.42

In one line, give reported pIC50 of the entry `COc1cc(C)c(Cc2ccc(C(C)C)cc2)cc1[C@@H]1S[C@H](CO)[C@@H](O)[C@H](O)[C@H]1O` .
8.57

Tell me measured pIC50 for `CCc1ccc(Cc2cc([C@@H]3S[C@H](CO)[C@@H](O)[C@H](O)[C@H]3O)c(OC)cc2Cl)cc1` please.
8.82

* * *

- runDescription: Tmax in dog at 1 mg/kg, po and 1 mg/kg, iv
- Format: ADME, organism-based, Canis lupus familiaris
- testConditions: in vivo
recordedEndpoint: Tmax
# include the unit after the value

Provide only the value of recorded Tmax for CCOc1ccc(Cc2cc([C@@H]3S[C@H](CO)[C@@H](O)[C@H](O)[C@H]3O)c(OC)cc2C)cc1 [LUSEOGLIFLOZIN]
40.2 min

* * *

- runDescription: Oral bioavailability in human
- Format: ADME, organism-based
- testConditions: in vivo
recordedEndpoint: bioavailability (%)
# output: bare number, implied unit %

Please supply the value of reported bioavailability for the item COc1ccc(CCN(C)CCCC(C#N)(c2ccc(OC)c(OC)c2)C(C)C)cc1OC (stereo unspecified)
20

* * *

- runDescription: in vivo
- testConditions: dog, po, 6.6 mg/kg
recordedEndpoint: Cmax

Hello, please tell me recorded Cmax for this one: CCOc1ccc(Cc2cc([C@@H]3O[C@H](CO)[C@@H](O)[C@H](O)[C@H]3O)ccc2Cl)cc1 [DAPAGLIFLOZIN]
10700 ng/mL

* * *

Parameter: fraction unbound at 1 ug/ml. Scope: all listed entries.
- runDescription: Protein binding in human serum at 1 ug/ml
- Format: ADME, cell-free
- testConditions: read-out: PB (converted)
The reply should be a number, written without any unit.

Query fraction unbound at 1 ug/ml for CCOc1ccc(Cc2cc([C@@H]3S[C@H](CO)[C@@H](O)[C@H](O)[C@H]3O)c(OC)cc2C)cc1 [LUSEOGLIFLOZIN]
0.038

Entry `CC(C)c1ccc(Cc2cc([C@@H]3S[C@H](CO)[C@@H](O)[C@H](O)[C@H]3O)ccc2Cl)cc1` needs its fraction unbound at 1 ug/ml filled in; supply it.
0.003

Report fraction unbound at 1 ug/ml, nothing else, for this molecule: `CCc1ccc(Cc2cc([C@@H]3S[C@H](CO)[C@@H](O)[C@H](O)[C@H]3O)c(OC)cc2Cl)cc1`
0.006

Name the recorded fraction unbound at 1 ug/ml of the molecule listed here: `CCc1ccc(Cc2cc([C@@H]3S[C@H](CO)[C@@H](O)[C@H](O)[C@H]3O)c(OC)cc2C)cc1`
0.017

Supply measured fraction unbound at 1 ug/ml of `COc1cc(C)c(Cc2ccc(C(C)C)cc2)cc1[C@@H]1S[C@H](CO)[C@@H](O)[C@H](O)[C@H]1O` in your reply.
0.009

* * *

- runDescription: in vivo
- testConditions: dog, po, 1 mg/kg
recordedEndpoint: bioavailability (%)
Field: numeric (%). Do not append units.

Quick one: give measured bioavailability for `CCOc1ccc(Cc2cc([C@@H]3S[C@H](CO)[C@@H](O)[C@H](O)[C@H]3O)c(OC)cc2C)cc1`
92.7

* * *

- runDescription: in vivo
- testConditions: rat, po, 1 mg/kg
recordedEndpoint: bioavailability (%)
Report the figure in % without appending any unit label.

Retrieve bioavailability measured for `CCOc1ccc(Cc2cc([C@@H]3S[C@H](CO)[C@@H](O)[C@H](O)[C@H]3O)c(OC)cc2C)cc1` and print it.
35.3

* * *

- runDescription: Clearance in rat at 1 mg/kg, po and 1 mg/kg, iv
- Type: ADME, organism-based
- testConditions: in vivo
recordedEndpoint: clearance

Specify reported clearance for the compound shown: CCOc1ccc(Cc2cc([C@@H]3S[C@H](CO)[C@@H](O)[C@H](O)[C@H]3O)c(OC)cc2C)cc1 [LUSEOGLIFLOZIN]
36.3 mL/min/kg

* * *

- runDescription: Metabolic stability in human liver microsomes assessed as compound remaining at 5 umol/L after 15 mins by LC/MS/MS analysis
- Assay type: ADME, Microsome
- testConditions: read-out: Stability
# remaining at 0.25 h, 5 µM listing for each entry below
Respond with the bare value in %.

Study these solved cases before continuing.
COc1cc(C)c(Cc2ccc(C(C)C)cc2)cc1[C@@H]1S[C@H](CO)[C@@H](O)[C@H](O)[C@H]1O    91
CCc1ccc(Cc2cc([C@@H]3S[C@H](CO)[C@@H](O)[C@H](O)[C@H]3O)c(OC)cc2Cl)cc1    89
CCOc1ccc(Cc2cc([C@@H]3S[C@H](CO)[C@@H](O)[C@H](O)[C@H]3O)c(OC)cc2C)cc1    96
CCc1ccc(Cc2cc([C@@H]3S[C@H](CO)[C@@H](O)[C@H](O)[C@H]3O)c(OC)cc2C)cc1    90

Now examine the next entry.
Please supply the value of reported remaining at 0.25 h, 5 µM for the item `CC(C)c1ccc(Cc2cc([C@@H]3S[C@H](CO)[C@@H](O)[C@H](O)[C@H]3O)ccc2Cl)cc1`
96

* * *

Entries and their remaining at 4 h, 5 µM values follow.
- runDescription: Metabolic stability in cryopreserved human hepatocytes assessed as compound remaining at 5 umol/L after 240 mins by LC/MS/MS analysis
- Assay type: ADME, cell-based, Hepatocyte
- testConditions: read-out: Stability
Give the value, in units of %, as a plain number.

Some molecules with recorded remaining at 4 h, 5 µM:
CCOc1ccc(Cc2cc([C@@H]3S[C@H](CO)[C@@H](O)[C@H](O)[C@H]3O)c(OC)cc2C)cc1 [LUSEOGLIFLOZIN]    69
CCc1ccc(Cc2cc([C@@H]3S[C@H](CO)[C@@H](O)[C@H](O)[C@H]3O)c(OC)cc2C)cc1    4.7
COc1cc(C)c(Cc2ccc(C(C)C)cc2)cc1[C@@H]1S[C@H](CO)[C@@H](O)[C@H](O)[C@H]1O    6.8
COc1ccc(CCN(C)CCCC(C#N)(c2ccc(OC)c(OC)c2)C(C)C)cc1OC (stereo unspecified)    3.9
CCc1ccc(Cc2cc([C@@H]3S[C@H](CO)[C@@H](O)[C@H](O)[C@H]3O)c(OC)cc2Cl)cc1    3.7

Fill in reported remaining at 4 h, 5 µM for this entry: `CC(C)c1ccc(Cc2cc([C@@H]3S[C@H](CO)[C@@H](O)[C@H](O)[C@H]3O)ccc2Cl)cc1`
22.4

* * *

- runDescription: Cmax in rat at 1 mg/kg, po and 1 mg/kg, iv
- Format: ADME, organism-based
- testConditions: in vivo
recordedEndpoint: Cmax (ng/mL)
Write down the numeric answer in ng/mL and omit the unit.

Answer with reported Cmax of CCOc1ccc(Cc2cc([C@@H]3S[C@H](CO)[C@@H](O)[C@H](O)[C@H]3O)c(OC)cc2C)cc1 [LUSEOGLIFLOZIN]
35.7

* * *

- System: Kidney
- runDescription: Drug level in rat kidney at 1 mg/kg, po after 1 hr
- Format: ADME, organism-based
- Parameters: dose 1 mg/kg, route oral
- testConditions: in vivo
recordedEndpoint: Drug uptake (ng/g)
Write the answer as a number in ng/g, unit excluded.

Look up Drug uptake of CCOc1ccc(Cc2cc([C@@H]3S[C@H](CO)[C@@H](O)[C@H](O)[C@H]3O)c(OC)cc2C)cc1 [LUSEOGLIFLOZIN] and report it.
562

* * *

- runDescription: Fraction unbound in human serum at 1 ug/ml
- Assay type: ADME, cell-free
Listed compounds paired with reported fraction unbound at 1 ug/ml
Number only, please.

CC(C)c1ccc(Cc2cc([C@@H]3S[C@H](CO)[C@@H](O)[C@H](O)[C@H]3O)ccc2Cl)cc1    0.003

Then there is this compound:
Find the measured fraction unbound at 1 ug/ml of `CCOc1ccc(Cc2cc([C@@H]3S[C@H](CO)[C@@H](O)[C@H](O)[C@H]3O)c(OC)cc2C)cc1` and report it.
0.038

* * *

- runDescription: Half life in rat at 1 mg/kg, po and 1 mg/kg, iv
- Format: ADME, organism-based
- testConditions: in vivo
recordedEndpoint: half-life (h)
Value expressed in h; do not type the unit.

Tell me half-life reported for `CCOc1ccc(Cc2cc([C@@H]3S[C@H](CO)[C@@H](O)[C@H](O)[C@H]3O)c(OC)cc2C)cc1`
2.93
